Experiment: in vivo
Details: C57BL/6J, mouse, plasma, po, 24.3 mg/kg
Description: Total Cmax in C57BL/6J mouse plasma at 24.3 mg/kg, po and 1.4 mg/kg, iv by UPLC-MS/MS analysis
endpoint: Cmax

- structure_smiles_string: "COC(=O)Nc1nc(C)c(S(=O)(=O)N2CCN(C[C@H](C)Nc3ncnc4c(C)csc34)CC2)s1"
  endpoint: "Cmax"
  val: "91.3 µg/mL"

###

Assay: in vivo
Conditions: C57BL/6J, mouse, po, 26.5 mg/kg
Description: Oral absorption in C57BL/6J mouse at 26.5 mg/kg by LC-MS/MS analysis

- structure_smiles_string: "COC(=O)Nc1nc(C)c(S(=O)(=O)N2CCN(C[C@H](C)Nc3ncnc4c(-c5ccc(C)nc5)cccc34)CC2)s1"
  Fa: "97%"

###

Assay: in vivo
Conditions: C57BL/6J, mouse, plasma, po, 26.5 mg/kg
Description: Total Cmax in C57BL/6J mouse plasma at 26.5 mg/kg, po and 2 mg/kg, iv by LC-MS/MS analysis
endpoint: Cmax (µg/mL)

- structure_smiles_string: "COC(=O)Nc1nc(C)c(S(=O)(=O)N2CCN(C[C@H](C)Nc3ncnc4c(-c5ccc(C)nc5)cccc34)CC2)s1"
  val: 71.5

###

Biological target: Lysophosphatidic acid receptor 2 (Homo sapiens)
Sequence (Q9HBW0 whole entry): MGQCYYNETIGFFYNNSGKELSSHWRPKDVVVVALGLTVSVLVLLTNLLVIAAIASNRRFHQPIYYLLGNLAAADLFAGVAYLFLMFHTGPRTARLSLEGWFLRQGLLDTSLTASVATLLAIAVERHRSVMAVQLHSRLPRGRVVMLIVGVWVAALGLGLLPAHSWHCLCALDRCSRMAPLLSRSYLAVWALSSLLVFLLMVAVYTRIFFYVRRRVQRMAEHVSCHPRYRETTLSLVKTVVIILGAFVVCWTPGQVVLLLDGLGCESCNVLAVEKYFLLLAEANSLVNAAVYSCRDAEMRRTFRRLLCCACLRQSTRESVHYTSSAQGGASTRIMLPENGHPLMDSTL
Exam item: assign True to entries whose IC50 is below 8 µM and False to entries at or above 8 µM. Note that a value of exactly 8 µM receives False.

- compound: "COC(=O)Nc1nc(C)c(S(=O)(=O)N2CCN(C[C@H](C)Nc3ncnc4c(-c5cccnc5C)cccc34)CC2)s1"
  study_target: "Lysophosphatidic acid receptor 2 (Homo sapiens)"
  discrete_label: "True"
- compound: "Cc1csc2c(N[C@@H](C)CN3CCC(NS(=O)(=O)c4ccc(Cl)c(Cl)c4)CC3)ncnc12"
  study_target: "Lysophosphatidic acid receptor 2 (Homo sapiens)"
  discrete_label: "True"
- compound: "CC(=O)Nc1ccc(S(=O)(=O)N2CCN(C[C@H](C)Nc3ncnc4c(C)csc34)CC2)cn1"
  study_target: "Lysophosphatidic acid receptor 2 (Homo sapiens)"
  discrete_label: "False"
- compound: "Cc1csc2c(N[C@@H](C)CN3CC4CC3CN4S(=O)(=O)c3ccc(Cl)c(Cl)c3)ncnc12 (some centres undefined)"
  study_target: "Lysophosphatidic acid receptor 2 (Homo sapiens)"
  discrete_label: "False"
- compound: "Cc1csc2c(N[C@@H](C)CN3CCN(S(=O)(=O)C(=O)c4ccc(Cl)c(Cl)c4)CC3)ncnc12"
  study_target: "Lysophosphatidic acid receptor 2 (Homo sapiens)"
  discrete_label: "False"
- compound: "Cc1csc2c(NC3(CN4CCN(S(=O)(=O)c5ccc(Cl)c(Cl)c5)CC4)CC3)ncnc12"
  study_target: "Lysophosphatidic acid receptor 2 (Homo sapiens)"
  discrete_label: "False"
- compound: "Cc1csc2c(N[C@@H](C)CNC3CCN(S(=O)(=O)c4ccc(Cl)c(Cl)c4)CC3)ncnc12"
  study_target: "Lysophosphatidic acid receptor 2 (Homo sapiens)"
  discrete_label: "False"
- compound: "CC(=O)Nc1ncc(S(=O)(=O)N2CCN(C[C@H](C)Nc3ncnc4c(C)csc34)CC2)s1"
  study_target: "Lysophosphatidic acid receptor 2 (Homo sapiens)"
  discrete_label: "True"
- compound: "C[C@@H](CN1CCN(S(=O)(=O)c2ccc(Cl)c(Cl)c2)CC1)Nc1ncnc2cnn(C)c12"
  study_target: "Lysophosphatidic acid receptor 2 (Homo sapiens)"
  discrete_label: "False"
- compound: "CC(=O)Nc1ccc(S(=O)(=O)N2CCN(C[C@H](C)Nc3ncnc4c(C)csc34)CC2)cc1Cl"
  study_target: "Lysophosphatidic acid receptor 2 (Homo sapiens)"
  discrete_label: "True"
- compound: "Cc1csc2c(N[C@@H](C)CN3CCN(S(=O)(=O)c4ccc(Cl)c(Cl)c4)CC34CC4)ncnc12"
  study_target: "Lysophosphatidic acid receptor 2 (Homo sapiens)"
  discrete_label: "False"
- compound: "Cc1cccc2c(NC(C)CN3CCN(S(=O)(=O)c4ccc(Cl)c(Cl)c4)CC3)ncnc12 (stereo in doubt; 42a)"
  study_target: "Lysophosphatidic acid receptor 2 (Homo sapiens)"
  discrete_label: "False"
- compound: "Cc1csc2c(N[C@@H](C)CN3CCN(S(=O)(=O)c4ccccc4)CC3)ncnc12"
  study_target: "Lysophosphatidic acid receptor 2 (Homo sapiens)"
  discrete_label: "False"
- compound: "Cc1cc2ncnc(NC(C)CN3CCN(S(=O)(=O)c4ccc(Cl)c(Cl)c4)CC3)c2s1 (racemic)"
  study_target: "Lysophosphatidic acid receptor 2 (Homo sapiens)"
  discrete_label: "False"
- compound: "Cc1csc2c(NC(C)CN3CCN(S(=O)(=O)c4ccc(Cl)c(Cl)c4)CC3)cccc12 (racemic)"
  study_target: "Lysophosphatidic acid receptor 2 (Homo sapiens)"
  discrete_label: "False"
- compound: "COC(=O)Nc1nc(C)c(S(=O)(=O)N2CCN(C[C@H](C)Nc3ncnc4c(-c5cn(C)nc5C(F)(F)F)cccc34)CC2)s1"
  study_target: "Lysophosphatidic acid receptor 2 (Homo sapiens)"
  discrete_label: "True"
- compound: "CC(CN1CCN(S(=O)(=O)c2ccc(Cl)c(Cl)c2)CC1)Nc1ncnc2c(-c3ccccc3)csc12 (racemic)"
  study_target: "Lysophosphatidic acid receptor 2 (Homo sapiens)"
  discrete_label: "True"
- compound: "Cc1csc2c(NCC(C)N3CCN(S(=O)(=O)c4ccc(Cl)c(Cl)c4)CC3)ncnc12 (stereo in doubt; 6b)"
  study_target: "Lysophosphatidic acid receptor 2 (Homo sapiens)"
  discrete_label: "True"
- compound: "Cc1csc2c(N3CCC[C@H]3CN3CCN(S(=O)(=O)c4ccc(Cl)c(Cl)c4)CC3)ncnc12"
  study_target: "Lysophosphatidic acid receptor 2 (Homo sapiens)"
  discrete_label: "False"

###

Experiment: in vitro
Settings: C57BL/6J, mouse, liver microsomes
Description: Intrinsic clearance in C57BL/6J mouse liver microsomes at 0.5 uM in presence of NADPH regenerating system measured for 45 mins per mg protein by LC-MS/MS analysis
Measured microsomal CLint at 0.75 h, 0.5 µM, listed per entry.

- molecule: "COC(=O)Nc1nc(C)c(S(=O)(=O)N2CCN(C[C@H](C)Nc3ncnc4c(-c5cccnc5C)cccc34)CC2)s1"
  microsomal CLint at 0.75 h, 0.5 µM: "13 µL/min/mg"
- molecule: "CC(CN1CCN(S(=O)(=O)c2ccc(Cl)c(Cl)c2)CC1)Nc1ncnc2c(-c3ccccc3)csc12 (racemic)"
  microsomal CLint at 0.75 h, 0.5 µM: "270 µL/min/mg"
- molecule: "COC(=O)Nc1nc(C)c(S(=O)(=O)N2CCN(C[C@H](C)Nc3ncnc4c(-c5ccc(C)nc5)cccc34)CC2)s1"
  microsomal CLint at 0.75 h, 0.5 µM: "49 µL/min/mg"
- molecule: "COC(=O)Nc1nc(C)c(S(=O)(=O)N2CCN(C[C@H](C)Nc3ncnc4c(-c5sc(C)nc5C)cccc34)CC2)s1"
  microsomal CLint at 0.75 h, 0.5 µM: "15 µL/min/mg"
- molecule: "COC(=O)Nc1nc(C)c(S(=O)(=O)N2CCN(C[C@H](C)Nc3ncnc4c(-c5c(C)noc5C)cccc34)CC2)s1"
  microsomal CLint at 0.75 h, 0.5 µM: "94 µL/min/mg"
- molecule: "Cc1cccc2c(NC(C)CN3CCN(S(=O)(=O)c4ccc(Cl)c(Cl)c4)CC3)ncnc12 (stereo in doubt; 42b)"
  microsomal CLint at 0.75 h, 0.5 µM: "698 µL/min/mg"
- molecule: "COC(=O)Nc1nc(C)c(S(=O)(=O)N2CCN(C[C@H](C)Nc3ncnc4c(-c5cn(C)nc5C(F)(F)F)cccc34)CC2)s1"
  microsomal CLint at 0.75 h, 0.5 µM: "125 µL/min/mg"

###

Test: in vivo
Conditions: C57BL/6J, mouse, po, 24.3 mg/kg
Description: Half life in C57BL/6J mouse at 24.3 mg/kg, po and 1.4 mg/kg, iv by UPLC-MS/MS analysis
endpoint: half-life (h)

- structure_smiles_string: "COC(=O)Nc1nc(C)c(S(=O)(=O)N2CCN(C[C@H](C)Nc3ncnc4c(C)csc34)CC2)s1"
  val: 2.17

###

Assay: in vivo
Conditions: C57BL/6J, mouse, po, 24.8 mg/kg
Description: Total Cmax in C57BL/6J mouse lungs at 24.8 mg/kg, po and 1.8 mg/kg, iv by LC-MS/MS analysis

- structure_smiles_string: "COC(=O)Nc1nc(C)c(S(=O)(=O)N2CCN(C[C@H](C)Nc3ncnc4c(-c5cn(C)nc5C(F)(F)F)cccc34)CC2)s1"
  Cmax / ng/mL: 19000

###

Assay: Apparent permeability across basolateral to apical side in human Caco-2 cells at 10 uM measured after 60 mins by LC-MS/MS analysis
Is Papp B→A at 1 h, 10 µM at least 9 ×10⁻⁶ cm/s? Then Fulfilled. If not, Not fulfilled.

- structure_smiles_string: "COC(=O)Nc1nc(C)c(S(=O)(=O)N2CCN(C[C@H](C)Nc3ncnc4c(C)csc34)CC2)s1"
  discrete_label: "Fulfilled"
- structure_smiles_string: "COC(=O)Nc1nc(C)c(S(=O)(=O)N2CCN(C[C@H](C)Nc3ncnc4c(-c5cccnc5C)cccc34)CC2)s1"
  discrete_label: "Fulfilled"
- structure_smiles_string: "COC(=O)Nc1nc(C)c(S(=O)(=O)N2CCN(C[C@H](C)Nc3ncnc4c(-c5c(C)noc5C)cccc34)CC2)s1"
  discrete_label: "Fulfilled"
- structure_smiles_string: "COC(=O)Nc1nc(C)c(S(=O)(=O)N2CCN(C[C@H](C)Nc3ncnc4c(-c5cccc(CN(C)C)c5)cccc34)CC2)s1"
  discrete_label: "Fulfilled"
- structure_smiles_string: "Cc1csc2c(N[C@@H](C)CN3CCN(S(=O)(=O)c4ccc(Cl)c(Cl)c4)CC3)ncnc12"
  discrete_label: "Not fulfilled"
- structure_smiles_string: "COC(=O)Nc1nc(C)c(S(=O)(=O)N2CCN(C[C@H](C)Nc3ncnc4c(-c5cn(C)nc5C(F)(F)F)cccc34)CC2)s1"
  discrete_label: "Not fulfilled"
- structure_smiles_string: "COC(=O)Nc1nc(C)c(S(=O)(=O)N2CCN(C[C@H](C)Nc3ncnc4c(-c5sc(C)nc5C)cccc34)CC2)s1"
  discrete_label: "Not fulfilled"
